Molecular target: dipeptidyl peptidase-IV enzyme (DPP-4) (Homo sapiens (Human))
Sequence (P27487 29-766): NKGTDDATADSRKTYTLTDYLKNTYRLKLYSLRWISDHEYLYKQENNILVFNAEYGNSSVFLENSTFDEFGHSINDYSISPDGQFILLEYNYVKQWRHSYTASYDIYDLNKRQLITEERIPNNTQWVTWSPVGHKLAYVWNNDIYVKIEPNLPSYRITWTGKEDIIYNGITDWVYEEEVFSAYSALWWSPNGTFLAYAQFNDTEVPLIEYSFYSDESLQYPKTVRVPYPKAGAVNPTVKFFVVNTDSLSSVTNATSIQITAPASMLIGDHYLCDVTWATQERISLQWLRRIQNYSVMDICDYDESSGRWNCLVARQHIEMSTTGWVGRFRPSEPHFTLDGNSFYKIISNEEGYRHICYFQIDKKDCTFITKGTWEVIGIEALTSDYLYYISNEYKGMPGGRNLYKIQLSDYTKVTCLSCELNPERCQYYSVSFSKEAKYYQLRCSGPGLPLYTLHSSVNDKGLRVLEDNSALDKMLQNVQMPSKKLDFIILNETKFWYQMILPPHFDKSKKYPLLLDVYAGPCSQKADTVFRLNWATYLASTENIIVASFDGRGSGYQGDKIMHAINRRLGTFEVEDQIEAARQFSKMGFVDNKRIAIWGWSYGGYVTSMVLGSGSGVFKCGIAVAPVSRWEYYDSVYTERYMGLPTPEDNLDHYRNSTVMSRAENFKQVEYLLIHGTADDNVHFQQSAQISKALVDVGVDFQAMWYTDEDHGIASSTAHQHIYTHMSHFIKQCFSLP
measurement-type: IC50 (nM)

a: C[C@]1(N2Cc3cn(S(=O)(=O)NC(=O)OCc4ccccc4)nc3C2)CO[C@H](c2cc(F)ccc2F)[C@@H](N)C1
b: Cc1ccc(S(=O)(=O)N=S(C)(=O)n2cc3c(n2)CN([C@H]2CO[C@H](c4cc(F)ccc4F)[C@@H](N)C2)C3)cc1 (some centres unmarked)
// which entry has the larger IC50 value, a or b ? // return label of chosen record
b
